Where do these numbers come from? They come from ChEMBL document CHEMBL3507680.

# Experiment description: Human HepG2 cell viability assay in 384 well format
# Type: toxicity, cell-based
# Parameters: dose 125 nL, time 70.5 hour; concentration not given beside the values
# Applied conditions: HepG2 cells, read-out: Inhibition
Assay metric: cytotoxicity at 70.5 h
For clarity, give the value followed by its unit.

Examples with their reported cytotoxicity at 70.5 h follow.
Compound	Observed measurement
Clc1ccccc1CN1CCc2nc(C3CCCCN3)ncc2C1 (stereo not drawn)	-18.6%
CS(=O)(=O)NCC1CCCN(C(=O)c2ccc(Cl)o2)C1 (stereo not drawn)	-8.13%
Cc1cc(CN2CCC(C3Nc4ccccc4S(=O)(=O)N3)CC2)oc1C (stereo not drawn)	-3.27%
CCc1nsc(NC2CCCn3nc(CC)nc32)n1 (stereo not drawn)	-5.19%
CCOC(=O)N1CCN(C(=O)c2sc(-c3ccccc3F)nc2C)CC1	-11.8%
CC(C)(C)c1cc(C[C@H]2CNCC[C@H]2CC(=O)NCc2cccs2)no1	-6.24%

Recorded cytotoxicity at 70.5 h for `CCc1cc(CN(C)C(=O)c2cnn[nH]2)on1` , please? -9.04%

Similarly, `Cc1cc(CN(C)C(=O)c2cc(COc3ccccc3)[nH]n2)n[nH]1` ? -3.12%
